From: patent US20240383915A1

Reported pIC50 by item:
# study-target: KRas(G12V) (Homo sapiens (Human), UniProt P01116, G12V)
# Sequence (P01116-2 other isoform, or with tags, fused parts or gaps G12V): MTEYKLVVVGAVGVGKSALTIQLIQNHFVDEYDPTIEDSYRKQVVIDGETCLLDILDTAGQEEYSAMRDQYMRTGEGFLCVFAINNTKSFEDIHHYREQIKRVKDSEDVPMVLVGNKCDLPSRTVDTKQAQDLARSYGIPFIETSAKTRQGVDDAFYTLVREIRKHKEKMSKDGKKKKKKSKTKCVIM
# method-notes: KRas(G12V) GDP HTRF (BODIPY-GDP exchange TR-FRET)
pIC50: −log10 of the molar value.

{"compound": "Cc1cc(N)nc(-c2c(Cl)c3c4c(nc(OC[C@H]5C[C@@H]6C[N@@]5CCO6)nc4c2F)N([C@H](C)c2cccnc2N)CCO3)c1C(F)(F)F (atropisomer, axis not shown) [Example 92b]", "pIC50": 9.51}
{"compound": "C=C1CN2CCC[C@@]2(COc2nc3c4c(c(Cl)c(-c5nc(N)cc(C)c5C(F)(F)F)c(F)c4n2)OCCN3[C@H](C)c2cccnc2N)C1 (atropisomer, axis not shown)", "pIC50": 10.13}
{"compound": "Cc1cc(N)nc(-c2c(Cl)c3c4c(nc(OC[C@@H]5CCN5CC(F)F)nc4c2F)N([C@H](C)c2cncnc2N)CCO3)c1C(F)(F)F (atropisomer, axis not shown) [Example 84a]", "pIC50": 9.85}

###

# study-target: KRas(G12V) (Homo sapiens (Human), UniProt P01116, G12V)
# method-notes: KRas(G12V) GDP HTRF (BODIPY-GDP exchange TR-FRET)
Reported IC50 by item:
observation-type: IC50

{"compound": "Nc1ncccc1CN1CCOc2c(Cl)c(-c3cc(O)cc4ccccc34)cc3nc(OC[C@@]45CCCN4C[C@H](F)C5)nc1c23 [Example 61]", "observation-type": "IC50", "value-measured": "0.86 nM"}
{"compound": "Nc1ncccc1CN1CCOc2c(Cl)c(-c3cccc(CO)c3)cc3nc(OC[C@@]45CCCN4C[C@H](F)C5)nc1c23 [Example 64]", "observation-type": "IC50", "value-measured": "290 nM"}
{"compound": "Cc1cc(N)nc(-c2cc3nc(OCC4(C)CS(=O)(=O)C4)nc4c3c(c2Cl)OCCN4Cc2cccnc2N)c1C(F)(F)F [Example 55]", "observation-type": "IC50", "value-measured": "19 nM"}
{"compound": "Cc1cc(N)nc(-c2c(Cl)c3c4c(nc(OC[C@@H]5CCCN5C5COC5)nc4c2F)N([C@H](C)c2cccnc2N)CCO3)c1C(F)(F)F (atropisomer, axis not shown) [Example 117]", "observation-type": "IC50", "value-measured": "0.08 nM"}
{"compound": "Cc1cc(N)nc(-c2c(Cl)c3c4c(nc(OCCF)nc4c2F)N([C@H](C)c2cccnc2N)CCO3)c1C(F)(F)F (atropisomer, axis not shown) [Example 151]", "observation-type": "IC50", "value-measured": "1.1 nM"}
{"compound": "Cc1cc(N)nc(-c2c(Cl)c3c4c(nc(OCC5CCN(C)C5)nc4c2F)N([C@H](C)c2cccnc2N)CCO3)c1C(F)(F)F (stereo partly drawn) [Example 134]", "observation-type": "IC50", "value-measured": "0.08 nM"}

###

# study-target: KRas(G12V) (Homo sapiens (Human), UniProt P01116, G12V)
# method-notes: KRas(G12V) GDP HTRF (BODIPY-GDP exchange TR-FRET)
# Format: biochemical
Reported log10 IC50 by item:
observation-type: log10 IC50 (log10 of the value in nM)

{"compound": "Cc1cc(N)nc(-c2c(Cl)c3c4c(nc(OC[C@H]5CC[C@@H]6CO[C@@H](C)CN56)nc4c2F)N([C@H](C)c2cccnc2N)CCO3)c1C(F)(F)F (atropisomer, axis not shown; (aR)) [Example 93b]", "study-target": "KRas(G12V) (Homo sapiens (Human), UniProt P01116, G12V)", "log10 IC50": -0.85}
{"compound": "C=C1CN2CCC2(COc2nc3c4c(c(Cl)c(-c5nc(N)cc(C)c5C(F)(F)F)c(F)c4n2)OCCN3[C@H](C)c2cccnc2N)C1 (stereo partly drawn) [Example 118]", "study-target": "KRas(G12V) (Homo sapiens (Human), UniProt P01116, G12V)", "log10 IC50": -1.22}
{"compound": "Cc1cc(N)nc(-c2c(Cl)c3c4c(nc(OC[C@@]56CCCN5C[C@H](F)C6)nc4c2F)N([C@H](C)c2cncc(N)c2)CCO3)c1C(F)(F)F (atropisomer, axis not shown; (aS)) [Example 45]", "study-target": "KRas(G12V) (Homo sapiens (Human), UniProt P01116, G12V)", "log10 IC50": -0.64}
{"compound": "Cc1cc(N)nc(-c2cc3nc(OC[C@@H]4C[C@@H](F)CN4C)nc4c3c(c2Cl)OCCN4Cc2cccnc2N)c1C(F)(F)F [Example 49]", "study-target": "KRas(G12V) (Homo sapiens (Human), UniProt P01116, G12V)", "log10 IC50": -0.24}
{"compound": "Cc1cc(N)nc(-c2c(Cl)c3c4c(nc(OC[C@]56CCN5CC(F)(F)C6)nc4c2F)N([C@H](C)c2ccnnc2N)CCO3)c1C(F)(F)F (atropisomer, axis not shown) [Example 77b]", "study-target": "KRas(G12V) (Homo sapiens (Human), UniProt P01116, G12V)", "log10 IC50": -0.89}
{"compound": "C[C@H](c1cccnc1N)N1CCOc2c(Cl)c(-c3c(F)ccc4cnn(C)c34)c(F)c3nc(OC[C@@]45CCCN4C[C@H](F)C5)nc1c23 (single isomer, unassigned) [Example 105a]", "study-target": "KRas(G12V) (Homo sapiens (Human), UniProt P01116, G12V)", "log10 IC50": -1.10}
{"compound": "Cc1cc(N)nc(-c2c(Cl)c3c4c(nc(OC[C@@H]5CC[C@H]6COCCN65)nc4c2F)N([C@H](C)c2ccnnc2N)CCO3)c1C(F)(F)F (atropisomer, axis not shown; (aS)) [Example 175]", "study-target": "KRas(G12V) (Homo sapiens (Human), UniProt P01116, G12V)", "log10 IC50": -1.10}
{"compound": "Cc1cc(N)nc(-c2cc3ncnc4c3c(c2Cl)OCCN4Cc2c(C(F)F)ccnc2N)c1C(F)(F)F [Example 57]", "study-target": "KRas(G12V) (Homo sapiens (Human), UniProt P01116, G12V)", "log10 IC50": 2.43}
{"compound": "Cc1cc(N)nc(-c2c(Cl)c3c4c(nc(OCC56COC(C5)C6)nc4c2F)N([C@H](C)c2cccnc2N)CCO3)c1C(F)(F)F [Example 141]", "study-target": "KRas(G12V) (Homo sapiens (Human), UniProt P01116, G12V)", "log10 IC50": -0.62}
{"compound": "Cc1cc(N)nc(-c2cc3ncnc4c3c(c2Cl)OCCN4CCC#N)c1C(F)(F)F [Example 13]", "study-target": "KRas(G12V) (Homo sapiens (Human), UniProt P01116, G12V)", "log10 IC50": 4.11}
{"compound": "Cc1cc(N)nc(-c2c(Cl)c3c4c(nc(OC[C@]56CCN5CC(F)(F)C6)nc4c2F)N([C@H](C)c2cccnc2N)CCO3)c1C(F)(F)F (atropisomer, axis not shown) [Example 114b]", "study-target": "KRas(G12V) (Homo sapiens (Human), UniProt P01116, G12V)", "log10 IC50": -0.66}
{"compound": "Cc1cc(N)nc(-c2c(Cl)c3c4c(nc(OC[C@]56CCCN5CC(F)(F)C6)nc4c2F)N([C@H](C)c2nccnc2N)CCO3)c1C(F)(F)F (atropisomer, axis not shown) [Example 166a]", "study-target": "KRas(G12V) (Homo sapiens (Human), UniProt P01116, G12V)", "log10 IC50": -0.25}
{"compound": "Cc1cc(N)nc(-c2c(Cl)c3c4c(nc(OCC56C[C@H](F)CN5C[C@H](F)C6)nc4c2F)N([C@H](C)c2cccnc2N)CCO3)c1C(F)(F)F (stereo partly drawn) [Example 98b]", "study-target": "KRas(G12V) (Homo sapiens (Human), UniProt P01116, G12V)", "log10 IC50": -1.00}
{"compound": "Cc1cc(N)nc(-c2c(Cl)c3c4c(nc(OCCn5cccn5)nc4c2F)N([C@H](C)c2cccnc2N)CCO3)c1C(F)(F)F (atropisomer, axis not shown) [Example 136]", "study-target": "KRas(G12V) (Homo sapiens (Human), UniProt P01116, G12V)", "log10 IC50": -0.68}
{"compound": "CSc1cncc(CN2CCOc3c(Cl)c(-c4nc(N)cc(C)c4C(F)(F)F)cc4ncnc2c34)c1 [Example 29]", "study-target": "KRas(G12V) (Homo sapiens (Human), UniProt P01116, G12V)", "log10 IC50": 3.87}
{"compound": "C[C@H](c1cccnc1N)N1CCOc2c(Cl)c(-c3nc(N)cc4ccccc34)c(F)c3nc(OC[C@@]45CCCN4C[C@H](F)C5)nc1c23 (atropisomer, axis not shown; (aS)) [Example 113a]", "study-target": "KRas(G12V) (Homo sapiens (Human), UniProt P01116, G12V)", "log10 IC50": -1.05}
{"compound": "Cc1cc(N)nc(-c2c(Cl)c3c4c(nc(OC[C@@]56CCN5CC(F)(F)C6)nc4c2F)N([C@H](C)c2cncnc2N)CCO3)c1C(F)(F)F (atropisomer, axis not shown) [Example 82a]", "study-target": "KRas(G12V) (Homo sapiens (Human), UniProt P01116, G12V)", "log10 IC50": -0.96}
{"compound": "Cc1cc(N)nc(-c2cc3nc(OC[C@@]45CCCN4C[C@H](F)C5)nc4c3c(c2Cl)OCCN4Cc2cccnc2N)c1C(F)(F)F [Example 60]", "study-target": "KRas(G12V) (Homo sapiens (Human), UniProt P01116, G12V)", "log10 IC50": -0.38}
{"compound": "Cc1cc(N)nc(-c2c(Cl)c3c4c(nc(OCC5COCCN5C)nc4c2F)N([C@H](C)c2cccnc2N)CCO3)c1C(F)(F)F (stereo partly drawn) [Example 140]", "study-target": "KRas(G12V) (Homo sapiens (Human), UniProt P01116, G12V)", "log10 IC50": -0.77}
{"compound": "Cc1cc(N)nc(-c2c(Cl)c3c4c(nc(OC[C@@H]5CC[C@H]6COCCN65)nc4c2F)N([C@H](C)c2nccnc2N)CCO3)c1C(F)(F)F (atropisomer, axis not shown; (aS)) [Example 104b]", "study-target": "KRas(G12V) (Homo sapiens (Human), UniProt P01116, G12V)", "log10 IC50": 1.20}
{"compound": "Cc1cc(N)nc(-c2c(Cl)c3c4c(ncnc4c2F)N([C@H](C)c2cccnc2N)CCO3)c1C(F)(F)F (atropisomer, axis not shown) [Example 53a]", "study-target": "KRas(G12V) (Homo sapiens (Human), UniProt P01116, G12V)", "log10 IC50": -0.43}
